Each record here notes measured pIC50.
- targetEntity: purified human MMP-12 enzyme (Homo sapiens, UniProt P39900)
- Sequence (P39900 106-470): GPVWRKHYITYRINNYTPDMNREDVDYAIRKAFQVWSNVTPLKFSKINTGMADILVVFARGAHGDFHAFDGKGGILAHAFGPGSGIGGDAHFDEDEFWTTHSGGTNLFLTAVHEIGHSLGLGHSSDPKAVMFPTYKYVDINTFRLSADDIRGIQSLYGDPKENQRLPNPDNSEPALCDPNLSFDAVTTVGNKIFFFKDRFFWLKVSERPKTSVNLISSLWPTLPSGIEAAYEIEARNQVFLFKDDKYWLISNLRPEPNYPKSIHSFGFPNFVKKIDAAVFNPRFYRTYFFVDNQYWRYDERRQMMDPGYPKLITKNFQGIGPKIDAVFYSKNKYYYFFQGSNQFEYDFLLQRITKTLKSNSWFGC
Please keep in mind that pIC50 is minus log10 of the molar concentration; only the number is needed.

Sample records with pIC50:
{"columns": ["smilesStructure", "pIC50"],
 "data": [
  ["CC(C)NC(=N)c1ccc2oc3cc(S(=O)(=O)N[C@H](C(=O)O)C(C)C)ccc3c2c1", 7.74],
  ["Cc1cscc1-c1ccc2oc3cc(S(=O)(=O)N[C@H](C(=O)O)C(C)C)ccc3c2c1", 8.66],
  ["Cc1noc(C)c1-c1ccc2oc3cc(S(=O)(=O)N[C@H](C(=O)O)C(C)C)ccc3c2c1", 7.97],
  ["CC(C)[C@@H](NS(=O)(=O)c1ccc2sc3cc(-c4nccs4)ccc3c2c1)C(=O)O", 6.66],
  ["CC(C)[C@@H](NS(=O)(=O)c1ccc2oc3cc(-c4nc5c(F)c(F)c(F)cc5s4)ccc3c2c1)C(=O)O", 7.29]
]}

Moving on to the next compound.
Q) Hi! What's the reported pIC50 for `Cc1noc(C)c1-c1ccc2c(c1)oc1ccc(S(=O)(=O)N[C@@H](C(=O)O)C(C)C)cc12` on purified human MMP-12 enzyme (Homo sapiens, UniProt P39900)?
A) 7.54

###

Each record here notes measured log10 IC50.
- targetEntity: purified human MMP-12 enzyme (Homo sapiens, UniProt P39900)
Log10 applied to IC50; unit prior to transform: nM.

{"columns": ["compound", "assayValue"],
 "data": [
  ["CC(C)[C@@H](NS(=O)(=O)c1ccc2oc3cc(-c4nccs4)ccc3c2c1)C(=O)O [Compound 291]", 0.72],
  ["Cc1csc(-c2ccc3sc4cc(S(=O)(=O)N[C@H](C(=O)O)C(C)C)ccc4c3c2)c1 [Compound 62]", 1.64],
  ["CC(C)[C@H](NS(=O)(=O)c1ccc2c(c1)oc1ccc(-c3ccc(-c4ccon4)s3)cc12)C(=O)O [Compound 216]", 0.65],
  ["CC(C)[C@@H](NS(=O)(=O)c1ccc2oc3cc(-c4cnn(C)c4)ccc3c2c1)C(=O)O [Compound 117]", 0.45],
  ["COc1ccc2nc(-c3ccc4c(c3)oc3ccc(S(=O)(=O)N[C@@H](C(=O)O)C(C)C)cc34)sc2c1 [Compound 296]", 0.49]
]}

Moving on to the next compound.
Q) I'd like to know its log10 IC50. The compound in question is CC(C)[C@H](NS(=O)(=O)c1ccc2c(c1)sc1ccc(-c3cnn(Cc4ccccc4)c3)cc12)C(=O)O [Compound 44]
A) 1.81

###

- targetEntity: purified human MMP-12 enzyme (Homo sapiens)
Each record here notes measured IC50.

Sample records with IC50:
{"columns": ["smilesStructure", "targetEntity", "IC50"],
 "data": [
  ["CC(C)[C@H](NS(=O)(=O)c1ccc2c(c1)sc1cc(-c3ccc(Cl)o3)ccc12)C(=O)O", "purified human MMP-12 enzyme (Homo sapiens)", "< 1.5 nM"],
  ["Cc1cnc(-c2ccc3c(c2)oc2cc(S(=O)(=O)N[C@H](C(=O)O)C(C)C)ccc23)s1", "purified human MMP-12 enzyme (Homo sapiens)", "< 1.5 nM"],
  ["CC(C)[C@H](NS(=O)(=O)c1ccc2c(c1)oc1ccc(-c3cncnc3)cc12)C(=O)O", "purified human MMP-12 enzyme (Homo sapiens)", "< 1.5 nM"],
  ["COc1cccc2sc(-c3ccc4oc5cc(S(=O)(=O)N[C@H](C(=O)O)C(C)C)ccc5c4c3)nc12", "purified human MMP-12 enzyme (Homo sapiens)", "13 nM"],
  ["CC(C)[C@@H](NS(=O)(=O)c1ccc2c(c1)sc1cc(-c3ccccc3)ccc12)C(=O)O", "purified human MMP-12 enzyme (Homo sapiens)", "2.6 nM"]
]}

Q) Hi! What's the reported IC50 for `COCC#Cc1ccc2c(c1)sc1cc(S(=O)(=O)N[C@@H](C(=O)O)C(C)C)ccc12` on purified human MMP-12 enzyme (Homo sapiens)?
A) 15 nM
